Target: T1, human CD71 extracellular domain (CD71-ECD) (human, UniProt P02786 89-760)
T1 construct: also called hCD71; human CD71-ECD
T1 sequence (P02786 89-760): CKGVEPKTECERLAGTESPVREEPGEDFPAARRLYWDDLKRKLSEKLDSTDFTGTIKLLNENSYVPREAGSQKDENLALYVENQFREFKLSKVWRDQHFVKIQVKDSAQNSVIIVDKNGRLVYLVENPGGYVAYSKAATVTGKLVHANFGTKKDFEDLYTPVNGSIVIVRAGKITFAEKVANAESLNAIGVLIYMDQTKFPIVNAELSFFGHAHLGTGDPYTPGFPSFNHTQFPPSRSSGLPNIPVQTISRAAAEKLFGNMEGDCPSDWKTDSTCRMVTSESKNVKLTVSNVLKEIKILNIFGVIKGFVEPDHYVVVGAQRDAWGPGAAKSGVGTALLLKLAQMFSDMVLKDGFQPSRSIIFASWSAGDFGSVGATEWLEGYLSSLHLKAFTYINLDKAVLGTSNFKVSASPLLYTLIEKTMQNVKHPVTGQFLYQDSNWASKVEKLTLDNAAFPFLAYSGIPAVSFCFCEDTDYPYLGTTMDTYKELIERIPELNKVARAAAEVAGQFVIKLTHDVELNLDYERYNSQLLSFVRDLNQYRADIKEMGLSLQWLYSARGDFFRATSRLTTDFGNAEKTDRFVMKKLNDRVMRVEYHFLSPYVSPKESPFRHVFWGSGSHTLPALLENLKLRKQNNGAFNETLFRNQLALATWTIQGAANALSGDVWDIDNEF
Assay: primary ELISA, RLU ratio to HSA
Would you mind telling me the reported hCD71:HSA of each entry?
Give bare numbers.

CD71-binding FN3 domain SEQ ID NO: 244 (designed binder) MSLPAPKNLVVSRVTEDSARLSWTAPDAAFDSFEIGYFENLYLGEAIVLTVPGSERSYDLTGLKPGTEYVVFIGGVKGGEYSIPLSAIFTT :: 392

Shift focus to the following entry.
Request: Name the reported hCD71:HSA value associated with the binder CD71-binding FN3 domain SEQ ID NO: 303 (designed binder) MSLPAPKNLVVSRVTEDSARLSWTAPDAAFDSFWIEYWEGWKSGEAIVLTVPGSERSYDLTGLKPGTEYRVHIWGVKGGIVSWPLSAIFTT
Result: 212
